System: Jurkat cells
Assay: Inhibition of Jurkat cell proliferation (CellTiter-Glo, 72 hours)
Assay type: cell-based
Settings: Homo sapiens; Jurkat cells, 72 hours, CellTiter-Glo; read-out: Jurkat (IC50)
pIC50: −log10 of the molar value.
assay-metric: pIC50

[[record]]
molecule = "C=CC(=O)N1CCC(C(=O)Nc2ccc(-c3cncc(OCC)n3)cn2)(c2ccnc(NS(=O)(=O)C3CC3)n2)CC1 [Compound 26]"
value_observed = "> 7.52"

[[record]]
molecule = "CCOc1cncc(-c2ccc(NC(=O)C3(c4ccnc(NS(=O)(=O)C5CC5)n4)CCC(=C(F)F)CC3)nc2)n1 (centres unmarked) [Compound 1]"
value_observed = "> 7.52"

[[record]]
molecule = "CCOc1cncc(-c2ccc(NC(=O)C3(c4ccnc(NS(=O)(=O)C5CC5)n4)CCC(=CCN4CCN(C)CC4)CC3)nc2)n1 (centres unmarked) [Compound 13]"
value_observed = "> 7.30"

[[record]]
molecule = "CCOc1cncc(-c2ccc(NC(=O)C3(c4ccnc(NS(=O)(=O)C5CC5)n4)CCC(=CCN(C)CCOC)CC3)nc2)n1 (centres unmarked) [Compound 29]"
value_observed = "> 7.52"

[[record]]
molecule = "C=C1CCC(C(=O)Nc2ccc(-c3cncc(OCC)n3)cn2)(c2ccnc(NS(=O)(=O)C3CC3)n2)CC1 [Compound 9]"
value_observed = "> 7.30"

[[record]]
molecule = "CCOc1cncc(-c2ccc(NC(=O)C3(c4ccnc(NS(=O)(=O)C5CC5)n4)CCC(=CC(N)=O)CC3)nc2)n1 (centres unmarked) [Compound 40]"
value_observed = "> 6.70"

[[record]]
molecule = "CCOc1cncc(-c2ccc(NC(=O)C3(c4ccnc(NS(=O)(=O)C5CC5)n4)CCC(=C(F)C#N)CC3)nc2)n1 (centres unmarked) [Compound 49]"
value_observed = "> 7.30"

[[record]]
molecule = "CCOc1cncc(-c2ccc(NC(=O)C3(c4ccnc(NS(=O)(=O)C5CC5)n4)CCC(=C(F)CC4COC4)CC3)nc2)n1 (centres unmarked) [Compound 69]"
value_observed = "> 7.82"


---

Assay: in vivo
Parameters: species or system SD rats
Settings: male, SD, rat, po, 3 mg/kg
assay-metric: AUC(0-t)

[[record]]
compound = "C=CC(=O)N1CCC(C(=O)Nc2ccc(-c3cncc(OCC)n3)cn2)(c2ccnc(NS(=O)(=O)C3CC3)n2)CC1"
value_observed = "288 ng·h/mL"

[[record]]
compound = "CCOc1cncc(-c2ccc(NC(=O)C3(c4ccnc(NS(=O)(=O)C5CC5)n4)CCC(=C(F)F)CC3)nc2)n1 (centres unmarked)"
value_observed = "68800 ng·h/mL"

[[record]]
compound = "CCOc1cncc(-c2ccc(NC(=O)C3(c4ccnc(NS(=O)(=O)C5CC5)n4)CCC(=CCC(C)(C)O)CC3)nc2)n1 (centres unmarked)"
value_observed = "25100 ng·h/mL"

[[record]]
compound = "CCOc1cncc(-c2ccc(NC(=O)C3(c4ccnc(NS(=O)(=O)C5CC5)n4)CCC(=CC4CCOCC4)CC3)nc2)n1 (centres unmarked)"
value_observed = "15700 ng·h/mL"

[[record]]
compound = "CCOc1cncc(-c2ccc(NC(=O)C3(c4ccnc(NS(=O)(=O)C5CC5)n4)CCC(=CC4COC4)CC3)nc2)n1 (centres unmarked)"
value_observed = "6250 ng·h/mL"

